- System: Enterococcus sp.
- ASSAY_METHOD_TEXT: In vitro antibacterial evaluation: minimum inhibitory concentration (MIC), broth dilution method
- Type: cell-based
- MEASUREMENT_PARAMETERS: broth dilution, inoculum 5×10^5 CFU/mL, 18 hours at 35° C.
# MIC Enterococcus faecium (GC 2243) listing for each entry below
Write down the numeric answer in µg/mL and omit the unit.

COMPOUND: CC(C)=CCN1CC(C(O)C2NC(=O)C(C(O)C3CNC(=N)N3)NC(=O)C(Cc3ccc(OC4OC(CO)C(OC5OC6COC7(OC6C(O)C5O)C5CC6CC(C5)CC7C6)C(O)C4O)cc3)NC(=O)C(C(C)c3ccccc3)NC(=O)CNC(=O)C(CO)NC2=O)N(C2OC(CO)C(O)C(O)C2O)C1=N (centres unmarked) [Example 225]
MEASURED_METRIC: MIC Enterococcus faecium (GC 2243)
NUMERIC_READOUT: 4

Next compound, please.
Q. Reported MIC Enterococcus faecium (GC 2243), compound CC(c1ccccc1)C1NC(=O)CNC(=O)C(CO)NC(=O)C(C(O)C2CNC(=N)N2C2OC(CO)C(O)C(O)C2O)NC(=O)C(C(O)C2CNC(=N)N2)NC(=O)C(Cc2ccc(OC3OC(CO)C(OC4OC5COC(c6ccc(C=Cc7ccccc7)cc6)OC5C(O)C4O)C(O)C3O)cc2)NC1=O (centres unmarked) [Example 172] : ____
A. 8
